System: T1-a-5258
Test: CellTiter-Glo (CTG) GR50, T1-a-5258
Conditions: Homo sapiens, read-out: PDGFRA CTG GR50 T1-a-5258, mean ± s.d., n ≥ 3; triple mutant D842V, G652E, V658A
compounds and their reported log10(GI50)
Log scale reminder: GI50 in µM, then log10 taken.

Worked examples, 3 compounds total:
>  <compound>
Cn1cc(-c2cc3c(N4CCC5(CC4)CN(c4ncc(Cc6ccccc6)cn4)C5)ncnn3c2)cn1 [Compound 7]

>  <log10(GI50)>
0.98

$$$$
>  <compound>
Cn1cc(-c2cc3c(Cl)ncnn3c2)cn1 [Compound 2]

>  <log10(GI50)>
0.13

$$$$
>  <compound>
Cn1cc(-c2cc3c(N4CCN(c5ncc([C@@](C)(N)c6ccc(F)cc6)cn5)CC4)ncnn3c2)cn1 [ava (1), avapritinib]

>  <log10(GI50)>
-0.27

$$$$

# get_value(readout='log10(GI50)', item= C=CC(=O)N[C@@](C)(c1ccc(F)cc1)c1cnc(N2CCN(c3ncnn4cc(-c5cnn(C)c5)cc34)CC2)nc1 [Compound 11] )
0.53

# get_value(readout='log10(GI50)', item= COC(=O)N[C@@](C)(c1ccc(F)cc1)c1cnc(N2CCN(c3ncnn4cc(-c5cnn(C)c5)cc34)CC2)nc1 [Compound 12] )
0.35

# get_value(readout='log10(GI50)', item= CN(C)[C@@](C)(c1ccc(F)cc1)c1cnc(N2CCN(c3ncnn4cc(-c5cnn(C)c5)cc34)CC2)nc1 [Compound 8] )
0.22

----------
Assay: MDCKII-MDR1 permeability assay
Details: dog, MDCK-MDR1
compounds and their reported Papp B→A at 2 h, 10 µM
Provide only the numeric value, understood in ×10⁻⁶ cm/s.

Worked examples, 4 compounds total:
>  <compound>
COC(=O)N[C@@](C)(c1ccc(F)cc1)c1cnc(N2CCN(c3ncnn4cc(-c5cnn(C)c5)cc34)CC2)nc1

>  <parameter>
Papp B→A at 2 h, 10 µM

>  <units symbol>
×10⁻⁶ cm/s

>  <reported result>
2.76

$$$$
>  <compound>
Cn1cc(-c2cc3c(N4CCN(c5ncc([C@@](C)(NC(=O)c6ccccc6)c6ccc(F)cc6)cn5)CC4)ncnn3c2)cn1

>  <parameter>
Papp B→A at 2 h, 10 µM

>  <units symbol>
×10⁻⁶ cm/s

>  <reported result>
0.47

$$$$
>  <compound>
C[C@H]1O[C@@H](O[C@H]2[C@@H](O)C[C@H](O[C@H]3[C@@H](O)C[C@H](O[C@H]4CC[C@@]5(C)[C@H](CC[C@@H]6[C@@H]5C[C@@H](O)[C@]5(C)[C@@H](C7=CC(=O)OC7)CC[C@]65O)C4)O[C@@H]3C)O[C@@H]2C)C[C@H](O)[C@@H]1O [digoxin, reference compound]

>  <parameter>
Papp B→A at 2 h, 10 µM

>  <units symbol>
×10⁻⁶ cm/s

>  <reported result>
15.4

$$$$
>  <compound>
Cn1cc(-c2cc3c(N4CCN(c5ncc([C@@](C)(N)c6ccc(F)cc6)cn5)CC4)ncnn3c2)cn1

>  <parameter>
Papp B→A at 2 h, 10 µM

>  <units symbol>
×10⁻⁶ cm/s

>  <reported result>
3.02

$$$$

# get_value(readout='Papp B→A at 2 h, 10 µM', item= CC(=O)N[C@@](C)(c1ccc(F)cc1)c1cnc(N2CCN(c3ncnn4cc(-c5cnn(C)c5)cc34)CC2)nc1 )
5.43

# get_value(readout='Papp B→A at 2 h, 10 µM', item= C=CC(=O)N[C@@](C)(c1ccc(F)cc1)c1cnc(N2CCN(c3ncnn4cc(-c5cnn(C)c5)cc34)CC2)nc1 )
1.99
